# Tested on: SARS-CoV-2 stock strain NL/2020
# PROCEDURE_TEXT: Protective effect against virus-induced cytopathic effect (crystal violet staining of Vero-E6 monolayer)
# Type: cell-based
# CONDITION: Severe acute respiratory syndrome coronavirus 2, Vero C1008, 72 h, Vero-E6, SARS-CoV-2 MOI 0.001, 72 h, 50 to 0.78 μM tested; read-out: PC MIN (lowest protective concentration)
Can you tell me minimal effective concentration for the items I'm about to list?
The response must be a number in µM with no trailing unit.

Query: minimal effective concentration; subject: COC(=O)c1cc(-c2cccc(N3CCCC3)c2)ccc1NC(C#N)[C@H](Cc1c[nH]c2ccccc12)NC(=O)OC(C)(C)C (stereo partly drawn)
3.12

Thanks! And CC(C)(C)OC(=O)N[C@@H](Cc1c[nH]c2ccccc12)C(C#N)Nc1ccccc1Br (stereo partly drawn) ?
6.25

Thanks! And COC(=O)c1cc(-c2ccc(C)nc2)ccc1NC(C#N)[C@H](Cc1c[nH]c2ccccc12)NC(=O)OC(C)(C)C (stereo partly drawn) ?
1.56

Thanks! And COC(=O)c1cc(-c2ccnc(N3CCOCC3)c2)ccc1NC(C#N)[C@H](Cc1c[nH]c2ccccc12)NC(=O)OC(C)(C)C (stereo partly drawn) ?
1.85

Thanks! And COC(=O)c1cc(-c2cccc(N3CCOCC3)c2)ccc1NC(C#N)[C@H](Cc1c[nH]c2ccccc12)NC(=O)OC(C)(C)C (stereo partly drawn) ?
0.78

Thanks! And COC(=O)c1cc(-c2ccc(N3CCOCC3)nc2)ccc1NC(C#N)[C@H](Cc1c[nH]c2ccccc12)NC(=O)OC(C)(C)C (stereo partly drawn) ?
1.56

###

Can you tell me CC50 at 48 h for the items I'm about to list?
# PROCEDURE_TEXT: in vitro
# CONDITION: African green monkey

Query: CC50 at 48 h; subject: COC(=O)c1cc(-c2cc(OC(C)C)ccc2F)ccc1NC(C#N)[C@H](Cc1c[nH]c2ccccc12)NC(=O)OC(C)(C)C (some centres unmarked)
> 50 µM

Thanks! And CC(C)(C)OC(=O)N[C@@H](Cc1c[nH]c2ccccc12)C(C#N)Nc1ccc(Cl)cc1C(=O)c1ccccc1 (some centres unmarked) ?
> 50 µM

Thanks! And COC(=O)c1cc(-c2ccc(N3CCOCC3)cc2)ccc1NC(C#N)[C@H](Cc1c[nH]c2ccccc12)NC(=O)OC(C)(C)C (some centres unmarked) ?
> 50 µM

Thanks! And CCOC(=O)c1ccccc1NC(C#N)[C@H](Cc1c[nH]c2ccccc12)NC(=O)OC(C)(C)C (some centres unmarked) ?
> 12.5 µM

Thanks! And COC(=O)c1cc(-c2ccc(N3CCCC3)nc2)ccc1NC(C#N)[C@H](Cc1c[nH]c2ccccc12)NC(=O)OC(C)(C)C (some centres unmarked) ?
> 50 µM

Thanks! And COC(=O)c1cc(-c2ccc(N3CCOCC3)nc2)ccc1NC(C#N)[C@H](Cc1c[nH]c2ccccc12)NC(=O)OC(C)(C)C (some centres unmarked) ?
> 50 µM

Thanks! And COC(=O)c1ccc(Br)cc1NC(C#N)[C@H](Cc1c[nH]c2ccccc12)NC(=O)OC(C)(C)C (some centres unmarked) ?
> 12.5 µM

Thanks! And COC(=O)c1cc(-c2cccc(N3CCOCC3)c2)ccc1NC(C#N)[C@H](Cc1c[nH]c2ccccc12)NC(=O)OC(C)(C)C (some centres unmarked) ?
> 50 µM

Thanks! And CC(C)(C)OC(=O)N[C@@H](Cc1c[nH]c2ccccc12)C(C#N)Nc1ccc(Br)cc1C(=O)c1ccccc1 (some centres unmarked) ?
> 50 µM

Thanks! And COC(=O)c1cc(-c2ccc3c(c2)OCCO3)ccc1NC(C#N)[C@H](Cc1c[nH]c2ccccc12)NC(=O)OC(C)(C)C (some centres unmarked) ?
> 50 µM

Thanks! And COC(=O)c1cc(Br)ccc1NC(C#N)[C@H](Cc1c[nH]c2ccccc12)NC(=O)OC(C)(C)C (some centres unmarked) ?
> 12.5 µM

Reference source: patent US20250296914A1
